Biological target: Calcium and integrin-binding protein 1 (Homo sapiens)
Assay: Primary qHTS for Identification of Calcium Integrin Binding Protein 1 (CIB1) Competitor (AID 1508620);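 also: GST tagged CIB1 binding a fluorescein labelled alphaIIb integrin peptide tracer; top concentration of the series differs between compounds; % is scaled to controls: 0 for no effect and ±100 for the full control effect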
Conditions: CIB1-GST / FITC-alphaIIb peptide fluorescence polarization; series mostly up to 57.7 µM
Inconclusive results are not listed. Calls of active or inactive are those of the source. Calls follow the shape of the dose curve; as a rule, active = well fitted inhibition curve with a large enough effect; inconclusive = small, poorly fitted or top-dose-only effect; inactive = flat fitted curve, though single readings scatter. Where a SMILES comes first, the peptide text is derived from it.
Measured endpoint: activity change, negative = inhibition

Guide cases for activity change, negative = inhibition, answers given:
Molecule: COc1cc(O)cc2c1C(=O)OC(C)CCCCCCC2 (stereo unspecified)
activity change, negative = inhibition: inactive

Molecule: CC(O)C/C=C/C=C/C(=O)OC1C=C2COC(=O)C2(O)C2(C)CCCC(C)(C)C12 (stereo unspecified)
activity change, negative = inhibition: inactive

Molecule: CC(=O)OCC(Cc1ccccc1)NC(=O)C(Cc1ccccc1)NC(=O)c1ccccc1 (stereo unspecified)
activity change, negative = inhibition: inactive

Molecule: CC(C)C1NC(=O)CNC(=O)C2CCCN2C(=O)C(Cc2c[nH]c3ccccc23)NC(=O)CNC(=O)C(Cc2ccc(O)cc2)NC(=O)CNC1=O (stereo unspecified) (cyclo(GVGYGWP); configuration not given here)
activity change, negative = inhibition: inactive

Request: Give activity change, negative = inhibition for this entry on Calcium and integrin-binding protein 1 (Homo sapiens): C/C=C(/C)C(=O)OC1C(OC(C)=O)C23C(O)OC4(CCC5C6(C)CCC(OC7OC(C(=O)O)C(O)C(OC8OC(CO)C(O)C(O)C8OC8OC(C)C(O)C(O)C8OC8OCC(O)C(O)C8O)C7OC7OC(CO)C(O)C(O)C7O)C(C)(C)C6CCC5(C)C4(C)CC2OC(C)=O)C3CC1(C)C (stereo unspecified)
Response: 3.17% [at 12.4 µM] (inactive)

Request: For Calcium and integrin-binding protein 1 (Homo sapiens), give the measured activity change, negative = inhibition of the entry CC1(C)CC[C@]2(C(=O)O)CC[C@]3(C)C(=CCC4[C@@]5(C)CC[C@H](O[C@@H]6O[C@H](C(=O)O)[C@@H](O)[C@H](O[C@@H]7O[C@H](CO)[C@H](O)[C@H](O)[C@H]7O)[C@H]6O[C@@H]6O[C@H](CO)[C@@H](O)[C@H](O)[C@H]6O)C(C)(C)C5CC[C@]43C)[C@@H]2C1 (stereo partly specified)
Response: 10.7% [at 12.4 µM] (inactive)
